B1: HDV Ribozyme (parent)
chain: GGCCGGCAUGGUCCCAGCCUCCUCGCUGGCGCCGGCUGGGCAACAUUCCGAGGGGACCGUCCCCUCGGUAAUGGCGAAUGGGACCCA

Variants of: B1
METHOD DESCRIPTION: self-cleavage, relative activity (ratio to wild type); higher = more cleavage; co-transcriptional
Where self-cleavage equals or exceeds 0.8, the correct label is True; where it does not, the label is False.

Kindly determine if self-cleavage recorded for `GGCCGGCAUGGUCCCAGCCUCAUCGCUGGCGCCGGCUGGGCAACAUUCCGAGGGGACCGUCCCCUCGGUAAUGGCGAAUGGGAGCCA` is above or exactly 0.8. False

Kindly determine if self-cleavage recorded for `GGCCGGCAUGGUCCCAGCCUCCUCGCUGGCGCCGGCUGGGCAACAUUCCGAGGGGACCAUCCCCUCGGUAAUGGCGGAUGGGACCCA` is above or exactly 0.8. True

Kindly determine if self-cleavage recorded for `GGCCGGCAUGGUGCCAGCCUCCUCGCUGGCGCCGGCUGGGCAACAUUCCGAGGGGACCGUCCCCUCGGUAAUGGCGAAAGGGACCCA` is above or exactly 0.8. False

Kindly determine if self-cleavage recorded for `GGCCGGGAUGGUCCCAGCCUCCUCGCUGGCGCCGGCUGGGCAACAUUCCGAGGGGACCGGCCCCUCGGUAAUGGCGAAUGGGACCCA` is above or exactly 0.8. False

Kindly determine if self-cleavage recorded for `GGCCCGCAUGGUCCCAGCCGCCUCGCUGGCGCCGGCUGGGCAACAUUCCGAGGGGACCGUCCCCUCGGUAAUGGCGAAUGGGACCCA` is above or exactly 0.8. False

Kindly determine if self-cleavage recorded for `GGCCGGCAUGGUCCCAGCCUCCUCGCUGGCGCCGGCUGGGCAACUUUCCGAGGGGACCAUCCCCUCGGUAAUGGCGAAUGGGACCCA` is above or exactly 0.8. True

Kindly determine if self-cleavage recorded for `GGCCGGCAUGGUCCCAGCCUCCUCGCUGGCGCCGGCUGGGCCACAUUCCGAGGGGACCGUCCCCUCCGUAAUGGCGAAUGGGACCCA` is above or exactly 0.8. False
